Target: T1, PUF4 RNA-binding domain (Saccharomyces cerevisiae, UniProt P25339 537-888)
T1 sequence: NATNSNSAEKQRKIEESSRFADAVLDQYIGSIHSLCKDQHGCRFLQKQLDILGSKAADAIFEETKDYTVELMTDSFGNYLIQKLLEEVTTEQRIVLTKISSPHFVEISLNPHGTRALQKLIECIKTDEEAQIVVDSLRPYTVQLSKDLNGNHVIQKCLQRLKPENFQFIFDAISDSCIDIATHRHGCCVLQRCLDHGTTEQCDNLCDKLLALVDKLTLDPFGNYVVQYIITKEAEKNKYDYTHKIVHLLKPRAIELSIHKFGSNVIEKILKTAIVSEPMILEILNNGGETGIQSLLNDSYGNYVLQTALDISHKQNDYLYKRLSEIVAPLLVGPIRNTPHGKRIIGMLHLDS
Test: Mg; RNA-MaP; 20 mM Na-HEPES pH 7.4, 30 mM KOAc, 0.75 mM MgCl2, 0.1% Tween-20, 5% glycerol, 0.1 mg/mL BSA, 2 mM DTT; 25 C; 0.0125-409.6 nM protein
Details: tags: N-His6-TEV cleaved; C-SNAP kept, Cy3B-labelled; label: tethered on chip by stalled RNA polymerase
property measured: log10(Kd) (log10 of the value in nM)
Base-10 log of Kd, unit nM.

Some binders with known log10(Kd) results, for comparison:
Ie_S2_P5E.1_K5.1_C5.1_H5.1_A5.1_F5.1_[+10TCTCT]_T5.1 (ssRNA) RNA: UUUGAUUAAUAUGAUAUCGUUCUUUCUUGUAUUAUUAUCUCUUUCUUUCUCGAUAUCAUAUUAAUCUUU = 0.34
Id_ii_S2_P3E.3_K3.2_C3.2_[C-2T]_[T-1C]_H3.2_A3.1_F3.1_T3.2_[T9C]_[A10T] (ssRNA) RNA: UUUGAUUAAUAUGAUAUCGUUCUUUCUUCUAUAUAUACUUUCUUUCUCGAUAUCAUAUUAAUCUUU = 1.94

Noted for UCUCUUAUACACUAUUAGCUCUCUU (ssRNA) [Id_ii_S1_P4E.4_K4.3_C4.2_[C-2A]_H4.3_A4.1_F4.1_T4.2_[T11C]] : its log10(Kd) reads 1.69

Noted for Ia_S2_P5E.1_K5.1_C5.1_H5.1_A5.1_[T5G]_F5.1_T5.1 (ssRNA) RNA: UUUGAUUAAUAUGAUAUCGUUCUUUCUUGUAGUAUUAUUCUUUCUCGAUAUCAUAUUAAUCUUU : its log10(Kd) reads 0.80

Noted for Id_ii_S4_P3E.2_K3.1_C3.2_[C-2A]_[T-1C]_H3.1_A3.1_F3.1_T3.2_[T9A]_[A10T] (ssRNA) RNA: UUUGACAACUGAUCGUUCUUUCUACUGUAUAUAAUUUCUUUCUCGAUCAGUUGUCUUU : its log10(Kd) reads 0.42

Noted for ACAAACCAUAUAUUAUUAAUACAAAC (ssRNA) [Id_ii_S3_P5E.3_K5.2_C5.2_[T-1A]_H5.2_A5.1_F5.1_T5.2_[T11A]_[A12T]] : its log10(Kd) reads 2.20

Noted for Id_ii_S4_P4E.2_K4.1_C4.2_[C-2A]_[T-1C]_H4.1_A4.1_F4.1_T4.2_[G10C] (ssRNA) RNA: UUUGACAACUGAUCGUUCUUUCUACUGUAUAUUACUUUCUUUCUCGAUCAGUUGUCUUU : its log10(Kd) reads 0.09

Noted for Id_ii_S4_P3E.2_K3.1_C3.2_[C-2T]_H3.1_A3.1_F3.1_T3.2_[T9A] (ssRNA) RNA: UUUGACAACUGAUCGUUCUUUCUUUUGUAUAUAAAUUCUUUCUCGAUCAGUUGUCUUU : its log10(Kd) reads 0.82

Noted for ACAAACCCUAUAUAUAGUACAAAC (ssRNA) [Id_ii_S3_P3E.3_K3.2_C3.2_[T-1C]_H3.2_A3.1_F3.1_T3.2_[T9G]_[A10T]] : its log10(Kd) reads 2.59

Noted for Ie_S4_P4E.1_K4.1_C4.1_H4.1_A4.1_F4.1_[+9C]_T4.1 (ssRNA) RNA: UUUGACAACUGAUCGUUCUUUCUUGUAUAUUACUUCUUUCUCGAUCAGUUGUCUUU : its log10(Kd) reads 0.18

Noted for UCUCUUUGUAAAACCUCUCUU (ssRNA) [Ic_S1_P4E.1_K4.1_C4.1_H4.1_A4.1_[T5A]_[T7A]_F4.1_[T8C]_[A9C]_T4.1] : its log10(Kd) reads 2.72

Noted for Ic_S2_P4E.1_K4.1_C4.1_H4.1_A4.1_[T5A]_[A6T]_F4.1_T4.1 (ssRNA) RNA: UUUGAUUAAUAUGAUAUCGUUCUUUCUUGUAAUUUAUUCUUUCUCGAUAUCAUAUUAAUCUUU : its log10(Kd) reads 0.32

Noted for UCUCUUGUACACUAUUAAUUCUCUU (ssRNA) [Id_ii_S1_P4E.4_K4.3_C4.2_[C-2G]_H4.3_A4.1_F4.1_T4.2_[G10A]] : its log10(Kd) reads 0.02

Noted for Ic_S2_P3E.1_K3.1_C3.1_H3.1_A3.1_[T5C]_F3.1_[T7C]_[A8G]_T3.1 (ssRNA) RNA: UUUGAUUAAUAUGAUAUCGUUCUUUCUUGUACACGUUCUUUCUCGAUAUCAUAUUAAUCUUU : its log10(Kd) reads 1.50

Noted for Ib_S2_P4E.1_K4.1_C4.1_H4.1_[A4T]_A4.1_[T7C]_F4.1_T4.1 (ssRNA) RNA: UUUGAUUAAUAUGAUAUCGUUCUUUCUUGUUUACUAUUCUUUCUCGAUAUCAUAUUAAUCUUU : its log10(Kd) reads 0.84
